These data points were gathered from paper PMC11909088.

Reported Endpoint: melting point

Some solved cases for reference:
# Smiles String, melting point
data = [
    ("N=C(N)NS(=O)(=O)c1ccc(NC(=O)c2nn(-c3ccccc3)c(-c3ccccc3)c2C(=O)c2ccccc2)cc1", "280 to 282 °C"),
    ("Cc1ccnc(NS(=O)(=O)c2ccc(NC(=O)c3nn(-c4ccccc4)c(-c4ccccc4)c3C(=O)c3ccccc3)cc2)n1", "237 to 239 °C"),
]

IN: Return reported melting point; argument: Cc1noc(NS(=O)(=O)c2ccc(NC(=O)c3nn(-c4ccccc4)c(-c4ccccc4)c3C(=O)c3ccccc3)cc2)c1C
OUT: 165 to 167 °C
